Target Desc: HLA-A*02:01 (Homo sapiens, UniProt P04439, D140Y/D185E/D98H/E176V/E277Q/G131W/G231S/I119V/I121R/I166T/I218V/L300P/L318F/N151K/N90K/P208A/P217A/Q86G/Q94H/R138H/R169H/T345S)
Experimental Protocol: MHC binding assay (UV-ligand exchange, beta2m ELISA)
Condition Info: binding of HLA-class I restricted peptides to HLA-A*02:01, β2m ELISA
Property Measured: Peptide Exchange (MHC class I binding score, peptide exchange yield)

Substance	Result Value
84 (GVMDVNTAL; listed as Homo sapiens) [compound 84]	“++” (≥20% = ++)
16 (ALPGGAAVAAV; listed as Homo sapiens) [compound 16]	“++++” (≥75% = ++++)
101 (ILVVIEPLL; listed as Homo sapiens) [compound 101]	“++++” (≥75% = ++++)
130 (LLVLIPVYL; listed as Homo sapiens) [compound 130]	“+” (≥10% = +)
207 (IIADLDTTIMFA; listed as Homo sapiens) [compound 207]	“+++” (≥50 = +++)

Pending substance:
For the substance 173 (TVIENIHTI; listed as Homo sapiens) [compound 173] , give its measured Peptide Exchange (MHC class I binding score, peptide exchange yield) value.
“++” (≥20% = ++)

* * *

Target Desc: HLA-A*02:01 (Homo sapiens, UniProt P04439, D140Y/D185E/D98H/E176V/E277Q/G131W/G231S/I119V/I121R/I166T/I218V/L300P/L318F/N151K/N90K/P208A/P217A/Q86G/Q94H/R138H/R169H/T345S)
Experimental Protocol: MHC binding assay (UV-ligand exchange, beta2m ELISA)
Condition Info: binding of HLA-class I restricted peptides to HLA-A*02:01, β2m ELISA
Property Measured: Peptide Exchange (MHC class I binding score, peptide exchange yield)

Consider the reported Peptide Exchange (MHC class I binding score, peptide exchange yield) for these substances:
Substance	Result Value
367 (NLWSLVAKV; listed as Homo sapiens) [compound 367]	“+++” (≥50 = +++)
146 (SIIEGPIIKL; listed as Homo sapiens) [compound 146]	“+++” (≥50 = +++)
320 (TIAPVTVAV; listed as Homo sapiens) [compound 320]	“++++” (≥75% = ++++)
102 (IQDRAVPSL; listed as Homo sapiens) [compound 102]	“++” (≥20% = ++)
137 (NLIKTVIKL; listed as Homo sapiens) [compound 137]	“+++” (≥50 = +++)
30 (ELLEGSEIYL; listed as Homo sapiens) [compound 30]	“+++” (≥50 = +++)

For the substance 75 (GLSIFAQDLRL; listed as Homo sapiens) [compound 75] , give its measured Peptide Exchange (MHC class I binding score, peptide exchange yield) value.
“++” (≥20% = ++)

For the substance 359 (FMQDPMEVFV; listed as Homo sapiens) [compound 359] , give its measured Peptide Exchange (MHC class I binding score, peptide exchange yield) value.
“+++” (≥50 = +++)

* * *

Target Desc: HLA-A*02:01 (Homo sapiens, UniProt P04439, D140Y/D185E/D98H/E176V/E277Q/G131W/G231S/I119V/I121R/I166T/I218V/L300P/L318F/N151K/N90K/P208A/P217A/Q86G/Q94H/R138H/R169H/T345S)
Experimental Protocol: MHC binding assay (UV-ligand exchange, beta2m ELISA)
Condition Info: binding of HLA-class I restricted peptides to HLA-A*02:01, β2m ELISA
Property Measured: Peptide Exchange (MHC class I binding score, peptide exchange yield)

Substance	Result Value
338 (FLDMTNWNL; listed as Homo sapiens) [compound 338]	“++++” (≥75% = ++++)
294 (ALLDQLHTLL; listed as Homo sapiens) [compound 294]	“++++” (≥75% = ++++)
66 (SLAGGLDDMKA; listed as Homo sapiens) [compound 66]	“+++” (≥50 = +++)
24 (AMAGDVVYA; listed as Homo sapiens) [compound 24]	“+++” (≥50 = +++)

* * *

Target Desc: HLA-A*02:01 (Homo sapiens, UniProt P04439, D140Y/D185E/D98H/E176V/E277Q/G131W/G231S/I119V/I121R/I166T/I218V/L300P/L318F/N151K/N90K/P208A/P217A/Q86G/Q94H/R138H/R169H/T345S)
Experimental Protocol: MHC binding assay (UV-ligand exchange, beta2m ELISA)
Condition Info: binding of HLA-class I restricted peptides to HLA-A*02:01, β2m ELISA
Property Measured: Peptide Exchange (MHC class I binding score, peptide exchange yield)

Substance	Result Value
29 (AVLQAVTAV; listed as Homo sapiens) [compound 29]	“+++” (≥50 = +++)
225 (ILQERELLPV; listed as Homo sapiens) [compound 225]	“+++” (≥50 = +++)
164 (SVHKGFAFV; listed as Homo sapiens) [compound 164]	“+++” (≥50 = +++)

* * *

Target Desc: HLA-A*02:01 (Homo sapiens, UniProt P04439, D140Y/D185E/D98H/E176V/E277Q/G131W/G231S/I119V/I121R/I166T/I218V/L300P/L318F/N151K/N90K/P208A/P217A/Q86G/Q94H/R138H/R169H/T345S)
Experimental Protocol: MHC binding assay (UV-ligand exchange, beta2m ELISA)
Condition Info: binding of HLA-class I restricted peptides to HLA-A*02:01, β2m ELISA
Property Measured: Peptide Exchange (MHC class I binding score, peptide exchange yield)

Substance	Result Value
318 (NLQVTQPTV; listed as Homo sapiens) [compound 318]	“+++” (≥50 = +++)
355 (FIWPMLIHI; listed as Homo sapiens) [compound 355]	“+++” (≥50 = +++)
324 (SLYSALQQA; listed as Homo sapiens) [compound 324]	“+++” (≥50 = +++)
361 (ILQEFESKL; listed as Homo sapiens) [compound 361]	“+++” (≥50 = +++)

For the substance 252 (NLLDPGSSYLL; listed as Homo sapiens) [compound 252] , give its measured Peptide Exchange (MHC class I binding score, peptide exchange yield) value.
“+++” (≥50 = +++)

For the substance 15 (ALPEVSVEA; listed as Homo sapiens) [compound 15] , give its measured Peptide Exchange (MHC class I binding score, peptide exchange yield) value.
“+++” (≥50 = +++)

For the substance 9 (ALCDTLITV; listed as Homo sapiens) [compound 9] , give its measured Peptide Exchange (MHC class I binding score, peptide exchange yield) value.
“+++” (≥50 = +++)

For the substance 289 (ILEEQPMDMLL; listed as Homo sapiens) [compound 289] , give its measured Peptide Exchange (MHC class I binding score, peptide exchange yield) value.
“+++” (≥50 = +++)

* * *

Target Desc: HLA-A*02:01 (Homo sapiens, UniProt P04439, D140Y/D185E/D98H/E176V/E277Q/G131W/G231S/I119V/I121R/I166T/I218V/L300P/L318F/N151K/N90K/P208A/P217A/Q86G/Q94H/R138H/R169H/T345S)
Experimental Protocol: MHC binding assay (UV-ligand exchange, beta2m ELISA)
Condition Info: binding of HLA-class I restricted peptides to HLA-A*02:01, β2m ELISA
Property Measured: Peptide Exchange (MHC class I binding score, peptide exchange yield)

Consider the reported Peptide Exchange (MHC class I binding score, peptide exchange yield) for these substances:
Substance	Result Value
228 (FLGGLSPGV; listed as Homo sapiens) [compound 228]	“+++” (≥50 = +++)
372 (SLFGPLPGPGPALV; listed as Homo sapiens) [compound 372]	“+++” (≥50 = +++)
150 (SLFDQPLSII; listed as Homo sapiens) [compound 150]	“+++” (≥50 = +++)
233 (GIIDINVRL; listed as Homo sapiens) [compound 233]	“++” (≥20% = ++)
10 (FVYGESVEL; listed as Homo sapiens) [compound 10]	“+++” (≥50 = +++)

For the substance 287 (FLWEEKFNSL; listed as Homo sapiens) [compound 287] , give its measured Peptide Exchange (MHC class I binding score, peptide exchange yield) value.
“++++” (≥75% = ++++)

For the substance 134 (MLLEHGITLV; listed as Homo sapiens) [compound 134] , give its measured Peptide Exchange (MHC class I binding score, peptide exchange yield) value.
“++++” (≥75% = ++++)

For the substance 28 (AVLHLLLSV; listed as Homo sapiens) [compound 28] , give its measured Peptide Exchange (MHC class I binding score, peptide exchange yield) value.
“++” (≥20% = ++)

For the substance 385 (YTIPLAIKL; listed as Homo sapiens) [compound 385] , give its measured Peptide Exchange (MHC class I binding score, peptide exchange yield) value.
“+++” (≥50 = +++)

For the substance 369 (RLLDLENSLLGL; listed as Homo sapiens) [compound 369] , give its measured Peptide Exchange (MHC class I binding score, peptide exchange yield) value.
“+++” (≥50 = +++)

For the substance 253 (NLWSVDGEVTV; listed as Homo sapiens) [compound 253] , give its measured Peptide Exchange (MHC class I binding score, peptide exchange yield) value.
“+++” (≥50 = +++)

For the substance 375 (VLWFKPVEL; listed as Homo sapiens) [compound 375] , give its measured Peptide Exchange (MHC class I binding score, peptide exchange yield) value.
“+++” (≥50 = +++)

For the substance 51 (FLVEAPHDWDL; listed as Homo sapiens) [compound 51] , give its measured Peptide Exchange (MHC class I binding score, peptide exchange yield) value.
“++++” (≥75% = ++++)

For the substance 183 (VLMPTVYQQGV; listed as Homo sapiens) [compound 183] , give its measured Peptide Exchange (MHC class I binding score, peptide exchange yield) value.
“+++” (≥50 = +++)

For the substance 301 (AASPIITLV; listed as Homo sapiens) [compound 301] , give its measured Peptide Exchange (MHC class I binding score, peptide exchange yield) value.
“+++” (≥50 = +++)

For the substance 58 (YIQQGIFSV; listed as Homo sapiens) [compound 58] , give its measured Peptide Exchange (MHC class I binding score, peptide exchange yield) value.
“+++” (≥50 = +++)

For the substance 282 (LLRDGIELV; listed as Homo sapiens) [compound 282] , give its measured Peptide Exchange (MHC class I binding score, peptide exchange yield) value.
“+++” (≥50 = +++)

For the substance 352 (ALVFELHYV; listed as Homo sapiens) [compound 352] , give its measured Peptide Exchange (MHC class I binding score, peptide exchange yield) value.
“+++” (≥50 = +++)

For the substance 175 (FTVPRVVAV; listed as Homo sapiens) [compound 175] , give its measured Peptide Exchange (MHC class I binding score, peptide exchange yield) value.
“+++” (≥50 = +++)

For the substance 254 (QLIPKLIFL; listed as Homo sapiens) [compound 254] , give its measured Peptide Exchange (MHC class I binding score, peptide exchange yield) value.
“+++” (≥50 = +++)

For the substance 198 (YLTFLPAEV; listed as Homo sapiens) [compound 198] , give its measured Peptide Exchange (MHC class I binding score, peptide exchange yield) value.
“+++” (≥50 = +++)

Every entry's value here was drawn from patent US10064928B2.
